B1: library; numbered along this chain (parent)
chain: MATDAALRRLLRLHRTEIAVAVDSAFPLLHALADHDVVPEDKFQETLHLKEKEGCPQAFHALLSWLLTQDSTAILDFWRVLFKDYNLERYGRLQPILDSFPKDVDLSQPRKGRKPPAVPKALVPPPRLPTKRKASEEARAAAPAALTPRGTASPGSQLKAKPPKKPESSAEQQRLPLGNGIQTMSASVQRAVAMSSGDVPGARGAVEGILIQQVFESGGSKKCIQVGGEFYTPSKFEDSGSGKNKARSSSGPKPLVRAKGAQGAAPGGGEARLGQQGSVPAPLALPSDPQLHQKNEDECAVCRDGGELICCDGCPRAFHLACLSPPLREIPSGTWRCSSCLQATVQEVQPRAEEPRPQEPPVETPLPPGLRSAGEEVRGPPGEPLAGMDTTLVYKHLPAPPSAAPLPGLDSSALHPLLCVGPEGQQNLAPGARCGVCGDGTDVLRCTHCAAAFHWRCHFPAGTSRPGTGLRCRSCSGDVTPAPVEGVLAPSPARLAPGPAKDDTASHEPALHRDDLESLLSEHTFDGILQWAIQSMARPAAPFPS

# Variants of: B1
# MEASUREMENT_DESCRIPTION: AIRE transcriptional activation functional score (insulin promoter-GFP; nonsense median 0, synonymous median 1) (normalised score); higher = higher AIRE activity (more reporter activation)
# APPLIED_CONDITIONS: with insulin promoter-GFP reporter in HEK293
Label not fulfilled if AIRE transcriptional activation functional score falls below 0.8; label fulfilled in every other case.

{"VARIANT_DESCRIPTOR": "F236C", "CATEGORY": "fulfilled"}
{"VARIANT_DESCRIPTOR": "L291V", "CATEGORY": "fulfilled"}
{"VARIANT_DESCRIPTOR": "R471H", "CATEGORY": "fulfilled"}
{"VARIANT_DESCRIPTOR": "P367T", "CATEGORY": "fulfilled"}
{"VARIANT_DESCRIPTOR": "P350I", "CATEGORY": "fulfilled"}
{"VARIANT_DESCRIPTOR": "P119L", "CATEGORY": "fulfilled"}
{"VARIANT_DESCRIPTOR": "K253S", "CATEGORY": "not fulfilled"}
{"VARIANT_DESCRIPTOR": "S372T", "CATEGORY": "fulfilled"}
{"VARIANT_DESCRIPTOR": "G263Q", "CATEGORY": "not fulfilled"}
{"VARIANT_DESCRIPTOR": "A134K", "CATEGORY": "not fulfilled"}
{"VARIANT_DESCRIPTOR": "A452P", "CATEGORY": "not fulfilled"}
{"VARIANT_DESCRIPTOR": "A386G", "CATEGORY": "not fulfilled"}
{"VARIANT_DESCRIPTOR": "E363M", "CATEGORY": "fulfilled"}
{"VARIANT_DESCRIPTOR": "D70P", "CATEGORY": "not fulfilled"}
{"VARIANT_DESCRIPTOR": "R190V", "CATEGORY": "not fulfilled"}
{"VARIANT_DESCRIPTOR": "N86V", "CATEGORY": "fulfilled"}
{"VARIANT_DESCRIPTOR": "L327W", "CATEGORY": "fulfilled"}
{"VARIANT_DESCRIPTOR": "S168Q", "CATEGORY": "not fulfilled"}
{"VARIANT_DESCRIPTOR": "L370D", "CATEGORY": "not fulfilled"}
{"VARIANT_DESCRIPTOR": "A537M", "CATEGORY": "not fulfilled"}
{"VARIANT_DESCRIPTOR": "T334H", "CATEGORY": "not fulfilled"}
{"VARIANT_DESCRIPTOR": "G313S", "CATEGORY": "fulfilled"}
{"VARIANT_DESCRIPTOR": "D514L", "CATEGORY": "not fulfilled"}
{"VARIANT_DESCRIPTOR": "K111S", "CATEGORY": "fulfilled"}
{"VARIANT_DESCRIPTOR": "L444E", "CATEGORY": "fulfilled"}
{"VARIANT_DESCRIPTOR": "P27N", "CATEGORY": "not fulfilled"}
